# methodDescription: Melting temperature (Tm) of purified His-tagged CATs
# Assay type: physicochemical
# conditionContext: purified CAT
propertyMeasured: melting temperature (Tm) (°C)

molecule	dataValue
CATec3 F97W: comparative CATec3 with F97W mutation (protein, UniProt P00484 1-213, looked up, variant F97W) Chloramphenicol …: MNYTKFDVKNWVRREHFEFYRHRLPCGFSLTSKIDITTLKKSLDDSAYKFYPVMIYLIAQAVNQFDELRMAIKDDELIVWDSVDPQFTVFHQETETWSALSCPYSSDIDQFMVNYLSVMERYKSDTKLFPQGVTPENHLNISALPWVNFDSFNLNVANFTDYFAPIITMAKYQQEGDRLLLPLSVQVHHAVCDGFHVARFINRLQELCNSKLK	81.2
